- System: HL-1
- protocol: relative cell viability (CellTiter-Glo) vs DMSO control (% of DMSO control); higher = more viable cells
- test.parameters: oxygen condition: hypoxia 48 h (1% O2) + reoxygenation 24 h; 200 nM
Counter-ions that a name gives are not always drawn.
value.type: relative cell viability

| compound | observed.result |
| --- | --- |
| COc1ccc(C2C(=O)c3ccccc3C2=O)cc1 [Anisindione] | 102 |
| Cc1ccc(S(=O)(=O)NC(=O)NN2CCCCCC2)cc1 [Tolazamide] | 103 |
| Cc1cccc(Nc2ccccc2C(=O)O)c1C [Mefenamic acid] | 93.4 |
| CC(C)NCC(O)COc1cccc2ccccc12 (stereo not given) [Propranolol HCl] | 109 |
| Cc1cnc(C(=O)O)c[n+]1[O-] [Acipimox] | 104 |
| CC(C)C[C@H](NC(=O)[C@@H](O)[C@H](N)Cc1ccccc1)C(=O)O [Ubenimex] | 95.6 |
| O=S(=O)(O)c1cc(O)ccc1O [Ethamsylate] | 101 |
| CN(C)CC/C=C1/c2ccccc2Sc2ccc(Cl)cc21 [Chlorprothixene] | 112 |
| CNCCCC12CCC(c3ccccc31)c1ccccc12 [Maprotiline hydrochloride] | 103 |
| CN1CC(=O)NC1=N [Creatinine] | 104 |

====

- System: HL-1
- protocol: relative cell viability (CellTiter-Glo) vs DMSO control (% of DMSO control); higher = more viable cells
- test.parameters: oxygen condition: normoxia 72 h; 200 nM
Where a name gives a salt, the structure may show the parent alone.

| molecule | relative cell viability |
| --- | --- |
| CCCc1nn(C)c2c(=O)[nH]c(-c3cc(S(=O)(=O)N4CCN(C)CC4)ccc3OCC)nc12 [Sildenafil citrate] | 103 |
| CCOc1cc(CC(=O)N[C@@H](CC(C)C)c2ccccc2N2CCCCC2)ccc1C(=O)O [Repaglinide] | 110 |
| O=P(O)(O)C(O)(Cc1cccnc1)P(=O)(O)O [Risedronic acid] | 108 |
| O=S(=O)(O)CCS [Mesna] | 109 |
| CC1(C)[C@@H](OC(=O)CCC(=O)O)CC[C@]2(C)[C@H]3C(=O)C=C4[C@@H]5C[C@@](C)(C(=O)O)CC[C@]5(C)CC[C@@]4(C)[C@]3(C)CC[C@@H]12 [Carbenoxolone Sodium] | 102 |
| CCCCOc1ccc(CC(=O)NO)cc1 [Bufexamac] | 107 |
| COc1cc2ncnc(Nc3ccc(F)c(Cl)c3)c2cc1OCCCN1CCOCC1 [Gefitinib] | 112 |
| CC(=O)Oc1cc2c(s1)CCN(C(C(=O)C1CC1)c1ccccc1F)C2 (stereo not drawn) [Prasugrel] | 105 |
| CN(Cc1cnc2nc(N)nc(N)c2n1)c1ccc(C(=O)N[C@@H](CCC(=O)O)C(=O)O)cc1 [Abitrexate] | 52.2 |
| Nc1[nH]cnc2ncnc1-2 [Adenine] | 95.5 |
| CCc1ccc(CCOc2ccc(CC3SC(=O)NC3=O)cc2)nc1 (stereo not drawn) [Pioglitazone] | 107 |
| CO[C@@H]1[C@@H](OC(N)=O)[C@@H](O)[C@H](Oc2ccc3c(O)c(NC(=O)c4ccc(O)c(CC=C(C)C)c4)c(=O)oc3c2C)OC1(C)C [Novobiocin sodium] | 99.2 |
| CN(C)C/C=C/C(=O)Nc1cc2c(Nc3ccc(F)c(Cl)c3)ncnc2cc1O[C@H]1CCOC1 [Afatinib] | 102 |
| CC(=O)[C@H]1CC[C@H]2[C@@H]3C=CC4=CC(=O)CC[C@@]4(C)[C@@H]3CC[C@]12C [Dydrogesterone] | 98.8 |
| Clc1ccc2c(c1)C(N1CCNCC1)=Nc1ccccc1O2 [Amoxapine] | 105 |
| O=C1O[C@H]([C@@H](O)CO)C([O-])=C1O.[Na+] [Sodium ascorbate] | 103 |
| Nc1nc2ccc(OC(F)(F)F)cc2s1 [Riluzole] | 104 |
| CNC[C@@H](O)c1ccc(O)c(O)c1 [L-Adrenaline] | 101 |

Attribution: the supplement of paper PMC8371130
